- measuredTarget: T1, hANGPTL4(26-148)-mFc (Homo sapiens, UniProt Q9BY76)
- T1 construct: amino acid residues 26-148 of human ANGPTL4 fused in-line to mouse IgG2a (hANGPTL4-mFc)
- T1 sequence (Q9BY76 with tags, fused parts or gaps): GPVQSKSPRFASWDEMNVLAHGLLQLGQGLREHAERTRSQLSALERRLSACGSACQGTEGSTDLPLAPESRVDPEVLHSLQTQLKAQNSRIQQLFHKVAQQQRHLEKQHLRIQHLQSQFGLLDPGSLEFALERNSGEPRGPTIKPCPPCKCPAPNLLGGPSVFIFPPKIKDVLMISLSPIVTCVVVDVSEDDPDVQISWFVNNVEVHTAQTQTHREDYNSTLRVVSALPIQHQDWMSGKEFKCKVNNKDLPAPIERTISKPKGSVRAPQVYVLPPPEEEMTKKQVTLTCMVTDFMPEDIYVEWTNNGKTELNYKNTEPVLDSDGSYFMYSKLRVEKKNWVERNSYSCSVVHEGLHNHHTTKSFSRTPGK
- protocolSummary: BIACORE, full mAb or Fab over anti-mFc captured hANGPTL4(26-148)-mFc
- Format: binding
- conditionSet: pH 7.2, 25° C., antigen captured 35 ± 1.9 RU

[
  {
    "molecule": "H1H284P Fab: Fab fragment of H1H284P prepared by papain digestion (antibody, V domains shown) VH: QVQLVESGGGVVQPGRSLRLSCAASGFTFSSYGMHWVRQAPGKGLEWMAVISFDGGNKNNADSVKGRFTISRDNSKNTLYLQMNSLRAEDTAVYYCAKEGDRSGHPYFYYYGLDVWGQGTTVTVS VL: DIQLTQSPSFLSASVGDRVTITCWASQGISSYLAWYQQKPGKAPKLLIYAASTLQSGVPSRFSGSGSETEFTLTISSLQPEDFATYYCQQLHSYPLTFGGGTKVEIK",
    "Response bound at 50 nM mAb or Fab (RU)": 29
  }
]
